# Target Under Test: Her2 (Homo sapiens)
# Construct: fused on or other part: P00533 (Epidermal growth factor receptor)
# Sequence (P04626 676-1255 limits assumed): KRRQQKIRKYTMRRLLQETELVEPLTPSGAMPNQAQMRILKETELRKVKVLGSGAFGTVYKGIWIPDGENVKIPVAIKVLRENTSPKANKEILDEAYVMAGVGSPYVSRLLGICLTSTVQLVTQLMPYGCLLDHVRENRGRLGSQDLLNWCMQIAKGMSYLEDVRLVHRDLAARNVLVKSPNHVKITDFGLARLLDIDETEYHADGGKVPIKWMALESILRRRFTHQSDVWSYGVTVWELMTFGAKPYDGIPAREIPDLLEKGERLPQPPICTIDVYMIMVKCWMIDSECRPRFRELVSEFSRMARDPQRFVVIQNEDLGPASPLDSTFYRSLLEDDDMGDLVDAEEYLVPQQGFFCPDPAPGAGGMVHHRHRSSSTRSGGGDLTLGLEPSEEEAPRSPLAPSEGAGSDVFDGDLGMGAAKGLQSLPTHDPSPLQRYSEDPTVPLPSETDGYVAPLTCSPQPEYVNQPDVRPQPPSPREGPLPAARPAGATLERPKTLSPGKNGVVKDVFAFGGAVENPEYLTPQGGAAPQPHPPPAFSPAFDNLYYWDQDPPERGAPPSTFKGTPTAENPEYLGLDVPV
# Protocol Text: HER-2 ELISA: EGF receptor-HER2 chimeric receptor assay in whole cells (HER2 kinase)
# Format: cell-based
# Condition Info: Table 7; NIH3T3 cells with EGFR/HER2 chimeric receptor, phosphotyrosine ELISA
pIC50: −log10 of the molar value.
A collection of molecules and their measured pIC50

>>> measured_result("O=C1Nc2cccc(CCO)c2/C1=C/c1ccccn1")
4.89
>>> measured_result("COCCc1cccc2c1CC(=O)N2")
"< 4.00"
>>> measured_result("O=C1Cc2c(CCOC(=O)NC3CCCCC3)cccc2N1")
"< 4.00"
>>> measured_result("Cc1ccc(O)c(C=C2C(=O)Nc3cccc(CCO)c32)n1 (racemic)")
"< 4.00"
>>> measured_result("CC(C)(C)NC(=O)OCCc1cccc2c1CC(=O)N2")
"< 4.00"

// pIC50 lookup, molecule = O=C1Nc2cccc(CCO)c2/C1=C/c1ccc2[nH]ccc2c1 , result: 4.64

Entry under test: Cc1[nH]c(/C=C2\C(=O)Nc3cccc(CCO)c32)c(C)c1CCCN(C)C . Its pIC50 was < 4.00

Kindly note the recorded pIC50 for O=C1Cc2c(CCOC(=O)Nc3ccccc3)cccc2N1 , which is < 4.00

get_value(item= CC(C)NC(=O)OCCc1cccc2c1CC(=O)N2 , readout=pIC50) returns 5.41

// pIC50 lookup, molecule = O=C1Cc2c(CCOc3cccc(-c4ccccc4)c3)cccc2N1 , result: 4.81

Looking up CCNC(=O)OCCc1cccc2c1CC(=O)N2 , I found its pIC50 recorded as < 4.00

* * *

In this section, each of the compounds is paired with its reported pIC50.
# Target Under Test: Her2 (Homo sapiens)
# Construct: fused on or other part: P00533 (Epidermal growth factor receptor)
# Protocol Text: HER-2 ELISA: EGF receptor-HER2 chimeric receptor assay in whole cells (HER2 kinase)
# Assay type: cell-based
# Condition Info: Table 5; NIH3T3 cells with EGFR/HER2 chimeric receptor, phosphotyrosine ELISA
Scale: pIC50 equals -log10([C]), with [C] in mol/L.

Form field pIC50, entry O=C1Nc2cc(-c3ccccc3)ccc2C1Cc1cc(Br)ccc1O (stereo not shown) : 4.17

The recorded pIC50 for Cc1[nH]c(CC2C(=O)Nc3ccccc32)c(C)c1CCCN(C)C (stereo not shown) is 4.55

The value of pIC50 measured for the compound Cc1[nH]c(CC2C(=O)Nc3ccc(Cl)cc32)c(C)c1CCCN(C)C (stereo not shown) turned out to be 4.27

Sample COc1c(C(C)C)cc(CC2C(=O)Nc3ccccc32)cc1C(C)C (stereo not shown) ; pIC50 observed: 4.65

* * *

# Target Under Test: Her2 (Homo sapiens)
# Construct: fused on or other part: P00533 (Epidermal growth factor receptor)
# Protocol Text: HER-2 ELISA: EGF receptor-HER2 chimeric receptor assay in whole cells (HER2 kinase)
# Type: cell-based
# Condition Info: Table 5; NIH3T3 cells with EGFR/HER2 chimeric receptor, phosphotyrosine ELISA
Reported Metric: IC50

Answered cases to consult:
>>> measured_result("O=C1Nc2cc(-c3ccccc3)ccc2C1Cc1cccc(F)c1O (stereo not drawn) [AAI-24]")
"26.1 µM"
>>> measured_result("COc1ccc(CC2C(=O)Nc3ccc(CCN4CCOCC4)cc32)cc1-c1ccsc1 (stereo not drawn) [AAI-8]")
"> 100 µM"
>>> measured_result("COc1ccc(-c2ccc3c(c2)NC(=O)C3Cc2[nH]c(C)c(CCCN(C)C)c2C)cc1 (stereo not drawn) [AAI-22]")
"21.4 µM"
>>> measured_result("O=C1Nc2ccc(F)cc2C1Cc1ccc(O)c(C2CCCC2)c1 (stereo not drawn) [AAI-11]")
"> 100 µM"
>>> measured_result("COc1ccc(CC2C(=O)Nc3cc(-c4ccccc4)ccc32)c(O)c1 (stereo not drawn) [AAI-25]")
"> 100 µM"

Query Cc1cccc(CC2C(=O)Nc3cccc(CCO)c32)n1 (stereo not drawn) [AAI-27] on Her2 (Homo sapiens); IC50 returned: > 100 µM

COc1ccc(-c2cc(CC3C(=O)Nc4ccccc43)c(O)cc2OC)cc1 (stereo not drawn) [AAI-4] on Her2 (Homo sapiens) gives IC50 = > 100 µM

Summary line: COc1cccc(-c2ccc3c(c2)NC(=O)C3Cc2[nH]c(C)c(CCCN(C)C)c2C)c1 (stereo not drawn) [AAI-21] , Her2 (Homo sapiens), reported IC50 = 52.9 µM

The compound O=C1Nc2ccccc2C1Cc1ccc2[nH]ccc2c1 (stereo not drawn) [AAI-17] , tested on Her2 (Homo sapiens), showed IC50 of > 100 µM
